# TCF/Wnt firefly luciferase reporter signal listing for each entry below
tested on: SW480; assay: TCF/Wnt firefly luciferase reporter signal relative to plate median (fraction of plate median); higher = higher Wnt reporter signal; conditions: 5 µM; treatment time 24 h; reporter: 7TFP
experimental readout: TCF/Wnt firefly luciferase reporter signal

1. NS(=O)(=O)c1cc2c(cc1Cl)N=C(CSCc1ccccc1)NS2(=O)=O: 1.03
2. O=C(O)C1=C(CSc2nnnn2CS(=O)(=O)O)CS[C@@H]2[C@H](NC(=O)[C@H](O)c3ccccc3)C(=O)N12: 0.968
3. Nc1nc2c(ncn2COCCO)c(=O)[nH]1: 0.973
4. C=CCNC1=C2C[C@@H](C)C[C@H](OC)[C@H](O)[C@@H](C)/C=C(\C)[C@H](OC(N)=O)[C@@H](OC)/C=C\C=C(/C)C(=O)NC(=CC1=O)C2=O: 0.731
5. COc1cc2nc(N3CCN(C(=O)C4CCCO4)CC3)nc(N)c2cc1OC (stereo not drawn): 1
6. OC[C@@H](O)[C@@H](O[C@@H]1O[C@H](CO)[C@H](O)[C@H](O)[C@H]1O)[C@H](O)[C@@H](O)CO: 1.03
7. CN1CCN(C(c2ccccc2)c2ccccc2)CC1: 1.01
8. CC(=O)OCC(=O)[C@@]1(O)[C@H](OC(C)=O)C[C@H]2[C@@H]3CCC4=CC(=O)C=C[C@]4(C)[C@@]3(F)[C@@H](O)C[C@@]21C: 0.894
9. CC(=O)N(c1onc(C)c1C)S(=O)(=O)c1ccc(N)cc1: 0.985
10. C[C@@H]1C[C@H]2[C@@H]3C[C@H](F)C4=CC(=O)C=C[C@]4(C)[C@@]3(F)[C@@H](O)C[C@]2(C)[C@@]1(O)C(=O)CO: 0.986
11. O=C(/C=C/c1ccc(O)cc1)c1ccc(O)cc1O: 0.862
12. O=C(O)c1cccnc1C(=O)O: 1.1
13. C[C@@](Cc1ccc(O)c(O)c1)(NN)C(=O)O: 0.95
14. Cn1c(=O)c2nc(C3CCCC3)[nH]c2n(C)c1=O: 0.968
15. COc1ccc(C(C)=O)c(OC)c1: 1.03
16. Cc1cc(=O)n(-c2ccccc2)n1C: 1.07
17. NC(=O)NCCC[C@H](N)C(=O)O: 0.864
18. C=CCSCC1Nc2cc(Cl)c(S(N)(=O)=O)cc2S(=O)(=O)N1 (stereo not drawn): 1.02
19. OCCN1CCN(CCCN2c3ccccc3Sc3ccc(C(F)(F)F)cc32)CC1: 1.04
20. NCC[C@H](O)C(=O)N[C@@H]1C[C@H](N)[C@@H](O[C@H]2O[C@H](CN)[C@@H](O)[C@H](O)[C@H]2O)[C@H](O)[C@H]1O[C@H]1O[C@H](CO)[C@@H](O)[C@H](N)[C@H]1O: 0.905
21. Cc1cc(CC(=O)O)n(C)c1C(=O)c1ccc(Cl)cc1: 0.97
22. C[C@@H]1O[C@@H]1P(=O)(O)O: 0.997
23. CC(C(=O)O)c1ccc2c(c1)[nH]c1ccc(Cl)cc12 (stereo not drawn): 1.09
24. CCCCC1C(=O)N(c2ccccc2)N(c2ccc(O)cc2)C1=O (stereo not drawn): 1.02
25. CCCCCCCC/C=C/CCCCCCCCOP(=O)([O-])OCC[N+](C)(C)C: 0.982
26. CC(=O)O[C@H]1CC[C@@]2(C)[C@@H](CC[C@@H]3[C@@H]2CC(=O)[C@]2(C)[C@@H]4[C@H](C[C@@H]32)O[C@]2(CC[C@@H](C)CO2)[C@H]4C)C1: 0.995
27. CC1CCc2cc(F)cc3c(=O)c(C(=O)O)cn1c23 (stereo not drawn): 1.07
28. C=C(C)[C@@H]1C[C@H](O)[C@]2(C(=O)O[C@@H]3O[C@H](CO[C@@H]4O[C@H](CO)[C@@H](O[C@@H]5O[C@@H](C)[C@H](O)[C@@H](O)[C@H]5O)[C@H](O)[C@H]4O)[C@@H](O)[C@H](O)[C@H]3O)CC[C@]3(C)[C@H](C[C@H]4OC(=O)C[C@@H](O)[C@]5(C)[C@@H]4[C@@]3(C)CC[C@H]5C(=C)C)[C@@H]12 [22alpha-hydroxychiisanoside (4)]: 0.951
29. COc1ccc(-c2cc(=O)c3c(OC)c(OC)c(OC)cc3o2)cc1OC: 1.15
30. CCC(=O)OCC(=O)[C@@]1(OC(=O)CC)[C@@H](C)C[C@H]2[C@@H]3CCC4=CC(=O)C=C[C@]4(C)[C@@]3(F)[C@@H](O)C[C@@]21C: 0.941
31. CC(C)=CCc1c(O)cc2oc(C)cc(=O)c2c1O: 0.943
32. C#C[C@]1(O)CC[C@H]2[C@@H]3CCC4=Cc5oncc5C[C@]4(C)[C@H]3CC[C@@]21C: 0.817
33. CN1C(C(=O)Nc2ccccn2)=C(O)c2ccccc2S1(=O)=O: 1.14
34. O=C(O)c1cc(=O)c2cccc(O)c2[nH]1: 1.15
35. CC(=O)NCCc1ccccc1: 1.02
36. Nc1ccc(S(=O)(=O)Nc2ccccn2)cc1: 0.915
37. CC(C)(Oc1ccc(Cl)cc1)C(=O)O: 1.1
38. C=CC(C1=CC(=O)C(OC)=CC1=O)c1ccc(O)cc1 (stereo not drawn): 0.877
